A set of molecules tested on UniProt O75173, with measured IC50:
property-name: IC50 (µM)

[A] O=C(O)CC[C@@H](NS(=O)(=O)c1ccc(-c2ccccc2)cc1)C(=O)O
[B] CC(C)[C@H](C(=O)O)N(Cc1cccnc1)S(=O)(=O)c1ccc(-c2ccccc2)cc1
[C] CC(C)[C@@H](NS(=O)(=O)c1ccc(-c2ccc(NC(=O)c3cc4ccccc4o3)cc2)cc1)C(=O)O
Arrange the items listed above so that IC50 rises from first to last. Write the labels in rank order as requested.
A, C, B
(A: 1.1 µM, C: 7.5 µM, B: 12 µM)
